Values from patent US9744222B2

test: Solubility pre-screen of peptides; settings: pre-screened for solubility in an aqueous, acidic milieu; YES/NO
Where a SMILES comes first, the peptide text is derived from it.
Measured endpoint: Solubility test

See these solved cases before continuing.
[
  {
    "Compound": "CC[C@H](C)[C@H](NC(=O)CNC(=O)[C@@H](NC(=O)[C@@H](N)Cc1c[nH]cn1)[C@@H](C)CC)C(=O)N[C@H](C(=O)N[C@@H](CC(=O)O)C(=O)N[C@@H](CC(C)C)C(=O)N[C@@H](CCCCN)C(=O)NCC(=O)N[C@@H](CCC(=O)O)C(=O)N[C@@H](CC(C)C)C(=O)N[C@@H](CC(=O)O)C(=O)N[C@@H](CCSC)C(=O)N[C@@H](CCCNC(=N)N)C(=O)N[C@@H](CC(N)=O)C(=O)O)[C@@H](C)CC [HDM31A] (H-HIGIIDLKGELDMRN-OH; N-terminus and C-terminus assumed)",
    "Solubility test": "YES"
  },
  {
    "Compound": "CC[C@H](C)[C@H](NC(=O)[C@H](C)NC(=O)[C@H](C)NC(=O)[C@@H](NC(=O)[C@H](C)NC(=O)[C@H](CCC(=O)O)NC(=O)[C@H](CC(=O)O)NC(=O)[C@@H](NC(=O)[C@H](C)NC(=O)[C@@H](N)CCCCN)C(C)C)C(C)C)C(=O)N[C@@H](CCC(=O)O)C(=O)N[C@@H](CCCCN)C(=O)N[C@@H](CO)C(=O)O [HDM28] (H-KAVDEAVAAIEKS-OH; N-terminus and C-terminus assumed)",
    "Solubility test": "YES"
  },
  {
    "Compound": "CC[C@H](C)[C@H](N)C(=O)NCC(=O)N[C@H](C(=O)N[C@@H](CCCCN)C(=O)N[C@@H](CC(=O)O)C(=O)N[C@@H](CC(C)C)C(=O)N[C@@H](CC(=O)O)C(=O)N[C@@H](C)C(=O)N[C@@H](Cc1ccccc1)C(=O)N[C@@H](CCCNC(=N)N)C(=O)N[C@@H](Cc1c[nH]cn1)C(=O)N[C@@H](Cc1ccc(O)cc1)C(=O)N[C@@H](CC(=O)O)C(=O)O)[C@@H](C)CC [HDM11] (H-IGIKDLDAFRHYD-OH; N-terminus and C-terminus assumed)",
    "Solubility test": "YES"
  },
  {
    "Compound": "CC[C@H](C)[C@H](NC(=O)[C@@H]1CCCN1C(=O)[C@@H](NC(=O)[C@@H](NC(=O)[C@@H](NC(=O)[C@@H](N)CCCNC(=N)N)[C@@H](C)O)C(C)C)[C@@H](C)O)C(=O)N[C@@H](CCCNC(=N)N)C(=O)N[C@@H](CCSC)C(=O)N[C@@H](CCC(N)=O)C(=O)NCC(=O)NCC(=O)N[C@@H](CS)C(=O)NCC(=O)O [HDM02] (H-RTVTPIRMQGGCG-OH; N-terminus and C-terminus assumed)",
    "Solubility test": "YES"
  }
]

Q: Name the recorded Solubility test for CC[C@H](C)[C@H](NC(=O)[C@H](Cc1ccc(O)cc1)NC(=O)[C@@H](N)CCC(=O)O)C(=O)N[C@@H](CCC(N)=O)C(=O)N[C@@H](Cc1c[nH]cn1)C(=O)N[C@@H](CC(N)=O)C(=O)NCC(=O)N[C@H](C(=O)N[C@H](C(=O)N[C@@H](CCC(N)=O)C(=O)N[C@@H](CCC(=O)O)C(=O)N[C@@H](CO)C(=O)N[C@@H](Cc1ccc(O)cc1)C(=O)O)C(C)C)C(C)C [HDM05] (H-EYIQHNGVVQESY-OH; N-terminus and C-terminus assumed) .
A: YES
